molecular target: L-amino acid oxidase from Rhodococcus opacus (Rhodococcus opacus, UniProt Q8VPD4); construct: made in house; host or cells: Rhodococcus opacus DSM 43250, the natural producer; purified from crude cell extract, not recombinant; experiment: Substrate spectrum and stereospecificity of L-amino acid oxidase; assay type: biochemical; conditions: 10 mM enantiomer-pure amino acid; relative to 10 mM L-alanine; pH 7.6, 30° C., 436 nm
Sequence (Q8VPD4 46-534): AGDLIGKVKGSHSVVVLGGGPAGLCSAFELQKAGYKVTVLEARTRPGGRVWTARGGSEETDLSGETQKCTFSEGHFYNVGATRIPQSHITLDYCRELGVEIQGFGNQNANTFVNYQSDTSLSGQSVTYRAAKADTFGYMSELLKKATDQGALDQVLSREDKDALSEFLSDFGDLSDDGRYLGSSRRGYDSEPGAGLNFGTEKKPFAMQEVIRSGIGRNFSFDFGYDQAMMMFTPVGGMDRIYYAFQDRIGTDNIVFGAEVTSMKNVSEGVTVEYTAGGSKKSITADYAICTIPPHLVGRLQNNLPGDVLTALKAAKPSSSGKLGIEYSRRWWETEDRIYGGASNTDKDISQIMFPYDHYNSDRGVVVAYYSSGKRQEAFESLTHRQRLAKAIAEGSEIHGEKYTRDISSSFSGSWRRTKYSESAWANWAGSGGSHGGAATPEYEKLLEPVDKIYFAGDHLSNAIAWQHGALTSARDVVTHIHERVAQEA
As shown below, each of these compounds has a reported Rel. activity (%) value.
Entry rule: numbers only, all in %.

1. CC[C@H](C)[C@H](N)C(=O)O; 45
2. NCCCC[C@H](N)C(=O)O; 55
3. NC(=O)CC[C@H](N)C(=O)O; 52
4. NCCC[C@H](N)C(=O)O; 117

Req: Kindly state the measured Rel. activity (%) obtained for NC1CCOC1=O (stereo not drawn) with L-amino acid oxidase from Rhodococcus opacus (Rhodococcus opacus, UniProt Q8VPD4).
Resp: 66

Req: Next entry: "NC(=O)C[C@H](N)C(=O)O"
Resp: 97

###

target: L-amino acid oxidase from Rhodococcus opacus (Rhodococcus opacus, UniProt Q8VPD4); construct: made in house; host or cells: Rhodococcus opacus DSM 43250, the natural producer; purified from crude cell extract, not recombinant; assay: Substrate spectrum and stereospecificity of L-amino acid oxidase; type: biochemical; conditions: marked #: used in racemic form (20 mM D,L-amino acid); relative to 10 mM L-alanine
Reported Metric: Rel. activity (%)
Give the value, in units of %, as a plain number.

Req: Given the compound COC[C@H](N)C(=O)O (racemic) [O-methyl serine] , what is its reported Rel. activity (%)?
Resp: 99

Req: Next: N[C@@H](Cc1ccc(F)cc1)C(=O)O (racemic) [4-fluorophenylalanine]
Resp: 25

Req: # repeat for CCCC[C@H](N)C(=O)O (racemic) [Norleucine]
Resp: 73

Req: Now the compound N[C@H](C(=O)O)C(O)c1ccccc1 (mixture of isomers) [β-Phenyl serine]
Resp: 8

###

target: L-amino acid oxidase from Rhodococcus opacus (Rhodococcus opacus); construct: made in house; host or cells: Rhodococcus opacus DSM 43250, the natural producer; purified from crude cell extract, not recombinant; assay: Substrate spectrum and stereospecificity of L-amino acid oxidase; type: biochemical; details: 10 mM enantiomer-pure amino acid; relative to 10 mM L-alanine; pH 7.6, 30° C., 436 nm
Reported Metric: Rel. activity (%)
Write the value in % as a bare number.

Req: Consider the compound shown here: "N[C@@H](CO)C(=O)O" What is its recorded Rel. activity (%)?
Resp: 72

Req: Next entry: "N=C(N)NCCC[C@H](N)C(=O)O"
Resp: 70

Req: Same lookup for CC(C)(C)CCC(N)C(=O)O (centres unmarked) , please.
Resp: 44

Req: Field entry: "CC(=O)NCCCC[C@H](N)C(=O)O"
Resp: 46

Req: Same thing, different compound: "CC(C)[C@H](N)C(=O)O"
Resp: 32

Req: Can you check "NC(=O)NCCC[C@H](N)C(=O)O" next?
Resp: 74

Req: Do the same for NCC(N)C(=O)O (centres unmarked) please
Resp: 71

###

target: L-amino acid oxidase from Rhodococcus opacus (Rhodococcus opacus, UniProt Q8VPD4); construct: made in house; host or cells: Rhodococcus opacus DSM 43250, the natural producer; purified from crude cell extract, not recombinant; assay: Substrate spectrum and stereospecificity of L-amino acid oxidase; assay type: biochemical; details: marked *: poor solubility, 100 μL top fraction of saturated L-amino acid solution per batch; relative to 10 mM L-alanine
Reported Metric: Rel. activity (%)
Answer format: numeric, % implied, no suffix.

Reference set (3 entries):
1) N[C@@H](Cc1cccc2ccccc12)C(=O)O [3-(1-naphthyl)alanine]; 109
2) N[C@@H](Cc1ccc([N+](=O)[O-])cc1)C(=O)O [4-nitrophenylalanine]; 30
3) N[C@@H](CSSC[C@H](N)C(=O)O)C(=O)O [Cystine]; 104

Kindly consider the entry below.
Req: Would you mind telling me what Rel. activity (%) value was observed for N[C@@H](Cc1ccc(O)cc1)C(=O)O [Tyrosine] ?
Resp: 54

###

Target: L-amino acid oxidase from Rhodococcus opacus (Rhodococcus opacus, UniProt Q8VPD4)
Construct: made in house; host or cells: Rhodococcus opacus DSM 43250, the natural producer; purified from crude cell extract, not recombinant
Test: Substrate spectrum and stereospecificity of L-amino acid oxidase
Type: biochemical
Conditions: 10 mM enantiomer-pure amino acid; relative to 10 mM L-alanine; pH 7.6, 30° C., 436 nm
Experimental: The transformation of a large number of natural and non-natural amino acids was investigated. […] The stereospecificity of the L-amino acid oxidase was measured for several substrates (e.g. alanine, asparagine, glutamine, phenylalanine, methionine, leucine, ornithine, lysine, histidine), in that both the D-form and the L-form, as well as the racemate were used. […] The measured activity values were indicated as relative values with reference to the activity with 10 mM L-alanine (Table 4). […]
Reported Metric: Rel. activity (%)
Write the answer as a number in %, unit excluded.

See these solved cases before continuing.
1) Nc1ccc(C[C@H](N)C(=O)O)cc1; 16
2) N[C@@H](Cc1ccccc1)C(=O)O; 53
3) N[C@@H](Cc1c[nH]cn1)C(=O)O; 36

// next item, Rel. activity (%) requested
Req: Reported Rel. activity (%) for L-amino acid oxidase from Rhodococcus opacus (Rhodococcus opacus, UniProt Q8VPD4), given "N[C@@H](Cc1ccccc1Cl)C(=O)O" ?
Resp: 24

The origin of these recorded values is patent US6461841B2.
